target: OC43 FP peptide (OC43), P36334; test: peptide ELISA
Sequence (P36334 900-919 limits assumed): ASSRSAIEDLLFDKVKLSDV
Entries and their EC50
MEASUREMENT LABEL: EC50 (µg/mL)

>  <BINDER>
fp.004 (antibody, V domains shown) VH: VQLVESGGGVVQPGTSLRLSCVASGFTFSNYAMHWVRQAPGKGLEWVAIISFDTRNTASAASVKGRFNISRDNSKNSLYLQMNSLRPEDTGVYYCARDLFLSDYDSRGYDPITGGFDCWGQGTLVTVSS VL: EIVMTQSPAALSVSPGEGATLSCRASQSVGSRLAWYQQKLGRPPRLLIYGASTRATGIPARFSGSGSGTEFTLTISSLQSEDFAVYYCQQYNDWPLLTFGGGTKVKIK

>  <ENDPOINT RESULT>
0.0222

$$$$
>  <BINDER>
fp.011 (antibody, V domains shown) VH: EVQLLESGGGLVQPGGSLRLSCAGSGFTFNNYAMTWVRQAPGRGLEWVSAISGSGGSSHYADSVKGRFTITRDNSKNTLYLQMNSLRAEDTAVYYCAFIDYYSGWSYYYGLDVWGQGTTVTVSS VL: EIVLTQSPATLSLSPGERATLSCRASQGVRTYVAWYQQKPGQAPRLLIYDASNRATGIPARFSGSGSGTDFTLTISSLEPEDFAVYYCQQRYNWPLCSFGQGTKLEIK

>  <ENDPOINT RESULT>
0.0218

$$$$
>  <BINDER>
fp.002 (antibody, V domains shown) VH: VQLVESGGGVVQPGTSLRLSCAGSGFNFDNYAIHWVRQAPGQGLEWVAIISYEARNKKYAGSVTGRFSISRDNSKSMVYLQMDSLRGEDTAVYYCARDLFLSDYDRSGYDPTRGGFDLWGQGTLVTVSS VL: EIVMTQSPATLSVSPGERATLSCRASQSVSSSLAWYQHKLGQAPRLLIYGASTRATGIPGRFSGSGSGTEFTLTISSLQSEDVAIYYCQQYGDWPLVTFGGGTKVEIK

>  <ENDPOINT RESULT>
0.0211

$$$$

Entry source: patent US20250382354A1
